Molecular target: BRD2(1) (Homo sapiens)
Construct: Fragments were tested in a thermal shift assay against bromodomains of the BET subfamily; made in house
Sequence (P25440 74-180 limits assumed): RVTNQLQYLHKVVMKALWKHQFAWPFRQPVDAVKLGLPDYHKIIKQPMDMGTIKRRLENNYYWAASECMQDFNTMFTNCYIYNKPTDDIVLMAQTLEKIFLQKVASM
Experiment: Protein stability (thermal) shift assay, BRD2(1)
Assay type: binding
Details: compound 10 μM, protein 2 μM; average of triplicate
Description: Thermal melting experiments were carried out using an Mx3005p real time PCR machine (Stratagene). Proteins were buffered in 10 mM HEPES, pH 7.5, 500 mM NaCl and assayed in a 96-well plate at a final concentration of 2 μM in 20 μL volume. […] SYPRO Orange (Molecular Probes) was added as a fluorescence probe at a dilution of 1 in 1000. […] The temperature was raised with a step of 3 °C per minute from 25 to 96 °C, and fluorescence readings were taken at each interval. […]
Reported Metric: ΔTm at 10 µM (°C)

[
  {
    "Smiles Repr": "Nc1nc(-c2ccc(Oc3ccccc3)cc2)c2nc[nH]c2n1",
    "Study Target": "BRD2(1) (Homo sapiens)",
    "Reported Metric": "ΔTm at 10 µM",
    "Value": -0.0833
  },
  {
    "Smiles Repr": "Nc1nc(-c2cccc(OCc3ccc(Cl)cc3)c2)c2nc[nH]c2n1",
    "Study Target": "BRD2(1) (Homo sapiens)",
    "Reported Metric": "ΔTm at 10 µM",
    "Value": 0.643
  },
  {
    "Smiles Repr": "COc1ccc(F)cc1-c1nc(N)nc2[nH]cnc12",
    "Study Target": "BRD2(1) (Homo sapiens)",
    "Reported Metric": "ΔTm at 10 µM",
    "Value": 0.3
  },
  {
    "Smiles Repr": "COc1ccc(Br)cc1-c1nc(Cl)nc2[nH]cnc12",
    "Study Target": "BRD2(1) (Homo sapiens)",
    "Reported Metric": "ΔTm at 10 µM",
    "Value": 0.8
  }
]

I: COc1ccccc1-c1nc(N)nc2[nH]cnc12
II: Nc1nc(-c2ccc(COc3cccc(C(F)(F)F)c3)cc2)c2nc[nH]c2n1
Request: Choose between I and II : whose measured ΔTm at 10 µM value is numerically larger? Lab log: write the label of the selected item as the result.
Response: I
(I: 0.6 °C, II: -0.5 °C)

I: COc1ccc(Br)cc1-c1nc(N)nc2c1ncn2C
II: Cn1cnc2c(Br)nc(N)nc21
Request: Choose between I and II : whose measured ΔTm at 10 µM value is numerically larger? Lab log: write the label of the selected item as the result.
Response: I
(I: 0.163 °C, II: -0.239 °C)

1: COc1cccc(OC)c1-c1nc(N)nc2[nH]cnc12
2: CCCCOc1cc(Br)cc(-c2nc(N)nc3[nH]cnc23)c1
3: Cn1cnc2c(-c3ccc(Oc4ccccc4)cc3)nc(N)nc21
Request: Order the items by recorded ΔTm at 10 µM; the first position goes to the largest value. Labels, ranked as asked.
Response: 2, 3, 1

I: COc1ccc(Br)cc1-c1nc(N)nc2[nH]cnc12
II: COCCc1ccc(OCc2ccc(-c3nc(N)nc4[nH]cnc34)cc2)cc1
III: Nc1nc(-c2ccc(OCc3ccccc3)c(Cl)c2)c2nc[nH]c2n1
IV: COc1cc(COc2ccc(-c3nc(N)nc4[nH]cnc34)cc2Cl)cc(OC)c1
V: COc1ccc(Br)cc1-c1nc(N)nc2c1ncn2CC(C)=O
Request: Endpoint returns the given compounds ordered by ascending ΔTm at 10 µM. Labels, ranked as asked.
Response: III, IV, V, II, I
(III: -0.5 °C, IV: -0.113 °C, V: 0.0207 °C, II: 0.354 °C, I: 2.5 °C)

I: CCOc1ccc(Br)cc1-c1nc(N)nc2[nH]cnc12
II: Nc1nc(-c2cc(Br)cc3c2OCC3)c2nc[nH]c2n1
III: COc1ccc(Br)cc1-c1nc(O)nc2[nH]cnc12
IV: CCCCOc1cc(Br)cc(-c2nc(N)nc3c2ncn3C)c1
Request: Endpoint returns the given compounds ordered by ascending ΔTm at 10 µM. Labels, ranked as asked.
Response: IV, I, III, II

1: COc1cccc(OCC(C)C)c1-c1nc(N)nc2[nH]cnc12
2: COc1cccc(OC(C)C)c1-c1nc(N)nc2[nH]cnc12
3: COc1ccc(Cl)cc1-c1nc(N)nc2[nH]cnc12
Request: Order the items by recorded ΔTm at 10 µM; the first position goes to the largest value. Labels, ranked as asked.
Response: 3, 1, 2
(3: 0.4 °C, 1: 0.187 °C, 2: -0.459 °C)

----------
Target: BRD9 (Homo sapiens)
Construct: made in house
Sequence (Q9H8M2 136-240 limits assumed): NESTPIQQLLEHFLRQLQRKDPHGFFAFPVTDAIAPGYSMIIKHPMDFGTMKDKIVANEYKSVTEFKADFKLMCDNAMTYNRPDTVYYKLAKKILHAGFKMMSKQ
Assay: Isothermal titration calorimetry, BRD9
Type: binding
Conditions: ITC, 50 mM HEPES pH 7.5, 150 mM NaCl, 15 °C, reverse titration, triplicate; read-out: KD
pKd: −log10 of the molar value.
Reported Metric: pKd

[
  {
    "Compound": "Nc1nc(-c2ccccc2)c2nc[nH]c2n1 [Compound 3a, 2-Amino-6-phenyl-9H-purine]",
    "pKd": 5.07
  }
]

I: COc1ccc(Cl)cc1-c1nc(O)nc2[nH]cnc12 [Compound 8e]
II: COc1ccc(Cl)cc1-c1nc(N)nc2[nH]cnc12 [Compound 7c]
Request: Choose between I and II : whose measured pKd value is numerically larger? Lab log: write the label of the selected item as the result.
Response: II
(II: 6.53, I: 5.12)

P: COc1ccc(Br)cc1-c1nc(Cl)nc2[nH]cnc12 [Compound 8a]
Q: COc1ccc(F)cc1-c1nc(N)nc2[nH]cnc12 [Compound 7b]
Request: Choose between P and Q : whose measured pKd value is numerically larger? Lab log: write the label of the selected item as the result.
Response: Q

----------
Target: BRD9 (Homo sapiens)
Construct: made in house
Experiment: Isothermal titration calorimetry, BRD9
Format: binding
Details: ITC, 50 mM HEPES pH 7.5, 150 mM NaCl, 15 °C, reverse titration, triplicate; read-out: KD
Protocol: Experiments were carried out on an ITC200 titration microcalorimeter from MicroCal, LLC (GE Healthcare) equipped with a Washing module, with a cell volume of 0.2003 mL, and a 40 μL microsyringe. […] Thermodynamic parameters were calculated using the basic equation of thermodynamics (ΔG = ΔH – TΔS = −RT ln KB, where ΔG, ΔH, and ΔS are the changes in free energy, enthalpy, and entropy of binding, respectively). […]
Reported Metric: Kd (nM)

[
  {
    "Smiles Repr": "Nc1nc(-c2cc(Br)cc3c2OCC3)c2nc[nH]c2n1",
    "Kd (nM)": 278
  }
]

P: COc1ccccc1-c1nc(N)nc2[nH]cnc12
Q: COc1ccc(Br)cc1-c1nc(N)nc2[nH]cnc12
Request: Returns the identifier with the smallest measured Kd among P and Q . Lab log: write the label of the selected item as the result.
Response: Q

----------
Molecular target: BRD9 (Homo sapiens, UniProt Q9H8M2)
Construct: made in house
Test: Isothermal titration calorimetry, BRD9
Assay type: binding
Conditions: ITC, 15 °C, reverse titration
Method: Experiments were carried out on an ITC200 titration microcalorimeter from MicroCal, LLC (GE Healthcare) equipped with a Washing module, with a cell volume of 0.2003 mL, and a 40 μL microsyringe. […] Thermodynamic parameters were calculated using the basic equation of thermodynamics (ΔG = ΔH – TΔS = −RT ln KB, where ΔG, ΔH, and ΔS are the changes in free energy, enthalpy, and entropy of binding, respectively). […]
Reported Metric: N (stoichiometry)

[
  {
    "Compound": "COc1ccc(F)cc1-c1nc(N)nc2[nH]cnc12 [Compound 7b]",
    "N (stoichiometry)": 0.97
  },
  {
    "Compound": "Nc1nc(-c2ccccc2)c2nc[nH]c2n1 [Compound 3a, 2-Amino-6-phenyl-9H-purine]",
    "N (stoichiometry)": 0.99
  },
  {
    "Compound": "COc1ccccc1-c1nc(N)nc2[nH]cnc12 [Compound 7a, 2-Amino-6-(2-methoxyphenyl)-9H-purine]",
    "N (stoichiometry)": 1.06
  },
  {
    "Compound": "COc1ccc(Br)cc1-c1nc(N)nc2[nH]cnc12 [Compound 7d]",
    "N (stoichiometry)": 0.97
  },
  {
    "Compound": "COc1ccc(Cl)cc1-c1nc(N)nc2[nH]cnc12 [Compound 7c]",
    "N (stoichiometry)": 0.98
  },
  {
    "Compound": "Nc1nc(-c2cc(Br)cc3c2OCC3)c2nc[nH]c2n1 [Compound 11]",
    "N (stoichiometry)": 1.03
  },
  {
    "Compound": "COc1ccc(Cl)cc1-c1nc(O)nc2[nH]cnc12 [Compound 8e]",
    "N (stoichiometry)": 1.05
  },
  {
    "Compound": "COc1ccc(Br)cc1-c1nc(Cl)nc2[nH]cnc12 [Compound 8a]",
    "N (stoichiometry)": 1.06
  }
]

Measured values drawn from paper PMC4403932 for this set.
